tested on: E. Coli; experiment: MIC, E. Coli; assay type: cell-based; conditions: 24 h
endpoint: MIC E. Coli.

Give recorded MIC E. Coli. with E. Coli for the following compound: NCC1OC(OC2C(CO)OC(OC3C(O)C(N)CC(N)C3OC3OC(CO)C(O)C(O)C3N)C2OCCNC2CCCCC2)C(N)C(O)C1O (stereo not drawn)
3 to 6 µM

Give recorded MIC E. Coli. with E. Coli for the following compound: NCC1OC(OC2C(CO)OC(OC3C(O)C(N)CC(N)C3OC3OC(CO)C(O)C(O)C3N)C2OCCNCCCCc2ccccc2)C(N)C(O)C1O (stereo not drawn)
3 to 5 µM

Give recorded MIC E. Coli. with E. Coli for the following compound: COc1cc(CCNCCOC2C(OC3C(O)C(N)CC(N)C3OC3OC(CO)C(O)C(O)C3N)OC(CO)C2OC2OC(CN)C(O)C(O)C2N)cc(OC)c1 (stereo not drawn)
10 to 20 µM

* * *

Assign MIC E. Coli. to each entry below.
system: E. Coli; experiment: MIC, E. Coli; format: cell-based; settings: 24 h;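 further: minimum inhibitory concentration determined in duplicate in 96-well plates, compounds given in 4% aqueous DMSO, with ampicillin and tetracycline as positive controls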

Any idea what MIC E. Coli. was measured for NCC1OC(OC2C(CO)OC(OC3C(O)C(N)CC(N)C3OC3OC(CO)C(O)C(O)C3N)C2OCCNCCc2cc(C(F)(F)F)cc(C(F)(F)F)c2)C(N)C(O)C1O (centres unmarked) [IBIS00561954] ?
>10 µM

Any idea what MIC E. Coli. was measured for NCC1OC(OC2C(CO)OC(OC3C(O)C(N)CC(N)C3OC3OC(CO)C(O)C(O)C3N)C2OCCNCCc2ccccc2)C(N)C(O)C1O (centres unmarked) [IBIS00560973] ?
3 to 6 µM

Any idea what MIC E. Coli. was measured for CC(C)CCCC(C)C1CCC2C3CCC4CC(NCCOC5C(OC6C(O)C(N)CC(N)C6OC6OC(CO)C(O)C(O)C6N)OC(CO)C5OC5OC(CN)C(O)C(O)C5N)CCC4(C)C3CCC12C (centres unmarked) [IBIS00561952] ?
>10 µM

Any idea what MIC E. Coli. was measured for NCC1OC(OC2C(CO)OC(OC3C(O)C(N)CC(N)C3OC3OC(CO)C(O)C(O)C3N)C2OCCNc2ccccn2)C(N)C(O)C1O (centres unmarked) [IBIS00561109] ?
12 to 25 µM

Any idea what MIC E. Coli. was measured for NCC1OC(OC2C(CO)OC(OC3C(O)C(N)CC(N)C3OC3OC(CO)C(O)C(O)C3N)C2OCCNCc2ccc(N)nc2)C(N)C(O)C1O (centres unmarked) [IBIS00560975] ?
3 to 6 µM

Any idea what MIC E. Coli. was measured for NCC1OC(OC2C(CO)OC(OC3C(O)C(N)CC(N)C3OC3OC(CO)C(O)C(O)C3N)C2OCCNCc2ccnc(N)c2)C(N)C(O)C1O (centres unmarked) [IBIS00560965] ?
6 to 12 µM

Any idea what MIC E. Coli. was measured for NCC1OC(OC2C(CO)OC(OC3C(O)C(N)CC(N)C3OC3OC(CO)C(O)C(O)C3N)C2OCCNC2CCCc3ccccc32)C(N)C(O)C1O (centres unmarked) [IBIS00561950] ?
>10 µM

Any idea what MIC E. Coli. was measured for NCC1OC(OC2C(CO)OC(OC3C(O)C(N)CC(N)C3OC3OC(CO)C(O)C(O)C3N)C2OCCNC23CC4CC(CC(O)(C4)C2)C3)C(N)C(O)C1O (centres unmarked) [IBIS00561195] ?
20 to 40 µM

Any idea what MIC E. Coli. was measured for NCC1OC(OC2C(CO)OC(OC3C(O)C(N)CC(N)C3OC3OC(CO)C(O)C(O)C3N)C2OCCNCCc2ccc(-c3ccccc3)cc2)C(N)C(O)C1O (centres unmarked) [IBIS00561193] ?
20 to 40 µM

Any idea what MIC E. Coli. was measured for NCC1OC(OC2C(CO)OC(OC3C(O)C(N)CC(N)C3OC3OC(CO)C(O)C(O)C3N)C2OCCNCCCc2ccccc2)C(N)C(O)C1O (centres unmarked) [IBIS00561144] ?
3 to 5 µM

Any idea what MIC E. Coli. was measured for NCC1OC(OC2C(CO)OC(OC3C(O)C(N)CC(N)C3OC3OC(CO)C(O)C(O)C3N)C2OCCNCc2ccccc2)C(N)C(O)C1O (centres unmarked) [IBIS00560974] ?
3 to 6 µM

Any idea what MIC E. Coli. was measured for NCC1OC(OC2C(CO)OC(OC3C(O)C(N)CC(N)C3OC3OC(CO)C(O)C(O)C3N)C2OCCNCCC2CC3CCC2C3)C(N)C(O)C1O (centres unmarked) [IBIS00561951] ?
>10 µM

Any idea what MIC E. Coli. was measured for NCC1OC(OC2C(CO)OC(OC3C(O)C(N)CC(N)C3OC3OC(CO)C(O)C(O)C3N)C2OCCNCCc2cccnc2)C(N)C(O)C1O (centres unmarked) [IBIS00560972] ?
6 to 12 µM

Any idea what MIC E. Coli. was measured for NCC1OC(OC2C(CO)OC(OC3C(O)C(N)CC(N)C3OC3OC(CO)C(O)C(O)C3N)C2OCCNc2ccccc2)C(N)C(O)C1O (centres unmarked) [IBIS00560932] ?
50 to 100 µM

* * *

molecular target: 16S ribosomal subunit RNA target; assay: Mass spectrometry based binding assay (FTICR), 16S
endpoint: Kd (nM)
Just the number please, in nM, no unit attached.

Any idea what Kd was measured for NCC1OC(OC2C(CO)OC(OC3C(O)C(N)CC(N)C3OC3OC(CO)C(O)C(O)C3N)C2OCCNc2cccnc2)C(N)C(O)C1O (stereo not shown) ?
550

Any idea what Kd was measured for CN(C)CCOC1C(OC2C(O)C(N)CC(N)C2OC2OC(CO)C(O)C(O)C2N)OC(CO)C1OC1OC(CN)C(O)C(O)C1N (stereo not shown) ?
930

Any idea what Kd was measured for NCC1OC(OC2C(CO)OC(OC3C(O)C(N)CC(N)C3OC3OC(CO)C(O)C(O)C3N)C2OCCNCc2nc3ccccc3[nH]2)C(N)C(O)C1O (stereo not shown) ?
4100

Any idea what Kd was measured for NCC1OC(OC2C(CO)OC(OC3C(O)C(N)CC(N)C3OC3OC(CO)C(O)C(O)C3N)C2OCCNC2CCCNC2)C(N)C(O)C1O (stereo not shown) ?
110

Sourced from patent US7943749B2
